Where do these numbers come from? They come from the kinase profiling compilation of Christmann-Franck et al. (2016).

Test system: FLT3 (human), P36888 [ITD]
Sequence (P36888 whole entry, looked up, change not shown): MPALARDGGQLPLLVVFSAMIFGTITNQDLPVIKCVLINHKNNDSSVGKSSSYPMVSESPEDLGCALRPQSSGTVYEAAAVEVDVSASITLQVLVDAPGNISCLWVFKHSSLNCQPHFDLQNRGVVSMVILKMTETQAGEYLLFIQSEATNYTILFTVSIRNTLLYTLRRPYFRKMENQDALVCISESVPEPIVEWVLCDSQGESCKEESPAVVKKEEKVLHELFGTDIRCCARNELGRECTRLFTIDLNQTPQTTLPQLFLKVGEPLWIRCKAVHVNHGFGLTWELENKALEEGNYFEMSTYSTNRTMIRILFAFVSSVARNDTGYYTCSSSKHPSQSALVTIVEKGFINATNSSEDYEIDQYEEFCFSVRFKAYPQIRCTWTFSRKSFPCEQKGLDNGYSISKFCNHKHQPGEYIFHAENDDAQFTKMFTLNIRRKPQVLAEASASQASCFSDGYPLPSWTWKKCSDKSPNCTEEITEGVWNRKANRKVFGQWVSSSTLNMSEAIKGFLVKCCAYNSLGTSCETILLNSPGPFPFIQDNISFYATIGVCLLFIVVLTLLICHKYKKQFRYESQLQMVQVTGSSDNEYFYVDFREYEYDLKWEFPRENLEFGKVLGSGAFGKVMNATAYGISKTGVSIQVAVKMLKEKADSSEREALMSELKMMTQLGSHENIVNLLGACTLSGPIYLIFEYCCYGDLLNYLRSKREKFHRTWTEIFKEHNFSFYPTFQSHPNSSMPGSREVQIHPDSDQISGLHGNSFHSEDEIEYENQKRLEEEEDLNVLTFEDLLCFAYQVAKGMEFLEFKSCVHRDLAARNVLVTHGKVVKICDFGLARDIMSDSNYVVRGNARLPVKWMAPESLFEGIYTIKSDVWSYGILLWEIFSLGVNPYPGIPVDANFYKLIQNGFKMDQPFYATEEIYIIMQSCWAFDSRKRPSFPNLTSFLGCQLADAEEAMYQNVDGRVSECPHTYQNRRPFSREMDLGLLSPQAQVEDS
Test: KINOMEscan competition binding
Settings: compound 10.0 µM
Listed next: entries and their corresponding kinase still bound, per cent of control.
experimentalReadout: kinase still bound, per cent of control (%)

moleculesmiles=COc1cc(N2CCN(C)CC2)ccc1Nc1ncc2c(n1)N(c1ccccc1)CCC(=O)N2 experimentalreadout="kinase still bound, per cent of control" experimentalvalue=31
moleculesmiles=COc1cc(N2CCN(C)CC2)ccc1Nc1ncc2c(n1)N(C(C)C)c1ccccc1C(=O)N2 experimentalreadout="kinase still bound, per cent of control" experimentalvalue=6.5
moleculesmiles=CN1C(=O)c2ccccc2N(C)c2nc(Nc3ccc(N4CCC(O)CC4)cn3)ncc21 experimentalreadout="kinase still bound, per cent of control" experimentalvalue=33
moleculesmiles=CC(C)Oc1cc(N2CCN(C)CC2)ccc1Nc1ncc2c(n1)N(C)c1ccccc1C(=O)N2 experimentalreadout="kinase still bound, per cent of control" experimentalvalue=2.4
moleculesmiles=O=C1NC(=O)/C(=C/c2c[nH]c(=O)c(-c3ccc(N4CCNCC4)nc3)c2)S1 experimentalreadout="kinase still bound, per cent of control" experimentalvalue=75
moleculesmiles=N=C1NC(=O)/C(=C/c2ccc(-c3cnc4ccccc4c3)o2)S1 experimentalreadout="kinase still bound, per cent of control" experimentalvalue=22
moleculesmiles=COc1cc(N2CCC(O)CC2)ccc1Nc1ncc2c(n1)N1CCc3cccc(c31)C(=O)N2C experimentalreadout="kinase still bound, per cent of control" experimentalvalue=100
